koff reference
Biological target: T1, human LAP-TGFB1 Fc fusion (human)
T1 construct: also called human LAP-TGFβ1-Fc; human LAP-TGFβ-Fc isoform 1
T1 sequence (chain, as listed by the source limits assumed): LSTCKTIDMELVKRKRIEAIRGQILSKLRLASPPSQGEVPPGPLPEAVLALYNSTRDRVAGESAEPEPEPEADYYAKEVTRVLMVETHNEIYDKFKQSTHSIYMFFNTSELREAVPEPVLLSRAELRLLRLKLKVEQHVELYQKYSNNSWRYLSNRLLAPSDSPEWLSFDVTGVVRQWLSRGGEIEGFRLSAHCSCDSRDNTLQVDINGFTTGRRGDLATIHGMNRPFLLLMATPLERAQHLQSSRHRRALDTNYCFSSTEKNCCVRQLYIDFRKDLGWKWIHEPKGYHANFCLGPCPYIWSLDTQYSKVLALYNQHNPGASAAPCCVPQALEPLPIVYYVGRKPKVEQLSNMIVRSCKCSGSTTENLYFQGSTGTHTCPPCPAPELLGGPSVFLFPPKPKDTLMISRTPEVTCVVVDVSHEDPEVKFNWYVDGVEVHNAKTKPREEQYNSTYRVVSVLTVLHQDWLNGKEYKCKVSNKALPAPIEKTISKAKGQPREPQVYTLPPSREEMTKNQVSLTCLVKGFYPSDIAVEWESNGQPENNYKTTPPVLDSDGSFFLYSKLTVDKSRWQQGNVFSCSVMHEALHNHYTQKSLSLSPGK
Assay: SPR pH 7.4, antigen-Fc captured, Fab analyte
# output: bare number, implied unit s⁻¹

binder	koff / s⁻¹
67BLH (Fab, V domains shown, also called 19BLM Fab) VH: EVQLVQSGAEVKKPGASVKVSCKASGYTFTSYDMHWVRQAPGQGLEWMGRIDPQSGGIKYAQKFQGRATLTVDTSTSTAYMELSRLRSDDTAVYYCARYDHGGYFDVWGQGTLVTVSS VL: DIQMTQSPSSLSASVGDRVTITCRASQDIYNYLNWYQQKPGKAVKLLIYYTSYLETGVPSRFSGSGSGTDYTLTISSLQPEDFATYFCQQGDTLPWTFGQGTKLEIK	0.00476

Attention now shifts to the item below.
## Task Given the entry 61BLH (Fab, V domains shown, also called 13BLM Fab) VH: EVQLVQSGAEVKKPGASVKVSCKASGYTFTSYDMHWVRQAPGQGLEWMGRIDPQTGDIKYAQKFQGRATLTVDTSTSTAYMELSRLRSDDTAVYYCARWDYGGQFDVWGQGTLVTVSS VL: DIQMTQSPSSLSASVGDRVTITCRASQDIYNYLNWYQQKPGKAVKLLIYYTSGLETGVPSRFSGSGSGTDYTLTISSLQPEDFATYFCQQGDTLPWTFGQGTKLEIK , report its measured koff.
## Result 4.52e-05
